Tested on: T1, cynomolgus monkey TLR4 expressed on stably transfected CHO-K1 cells (cynomolgus monkey, UniProt Q9TSP2 24-826 (Papio anubis entry))
T1 construct: Transfected alone; also called CHO cells expressing the cynomolgus monkey TLR4
T1 chain: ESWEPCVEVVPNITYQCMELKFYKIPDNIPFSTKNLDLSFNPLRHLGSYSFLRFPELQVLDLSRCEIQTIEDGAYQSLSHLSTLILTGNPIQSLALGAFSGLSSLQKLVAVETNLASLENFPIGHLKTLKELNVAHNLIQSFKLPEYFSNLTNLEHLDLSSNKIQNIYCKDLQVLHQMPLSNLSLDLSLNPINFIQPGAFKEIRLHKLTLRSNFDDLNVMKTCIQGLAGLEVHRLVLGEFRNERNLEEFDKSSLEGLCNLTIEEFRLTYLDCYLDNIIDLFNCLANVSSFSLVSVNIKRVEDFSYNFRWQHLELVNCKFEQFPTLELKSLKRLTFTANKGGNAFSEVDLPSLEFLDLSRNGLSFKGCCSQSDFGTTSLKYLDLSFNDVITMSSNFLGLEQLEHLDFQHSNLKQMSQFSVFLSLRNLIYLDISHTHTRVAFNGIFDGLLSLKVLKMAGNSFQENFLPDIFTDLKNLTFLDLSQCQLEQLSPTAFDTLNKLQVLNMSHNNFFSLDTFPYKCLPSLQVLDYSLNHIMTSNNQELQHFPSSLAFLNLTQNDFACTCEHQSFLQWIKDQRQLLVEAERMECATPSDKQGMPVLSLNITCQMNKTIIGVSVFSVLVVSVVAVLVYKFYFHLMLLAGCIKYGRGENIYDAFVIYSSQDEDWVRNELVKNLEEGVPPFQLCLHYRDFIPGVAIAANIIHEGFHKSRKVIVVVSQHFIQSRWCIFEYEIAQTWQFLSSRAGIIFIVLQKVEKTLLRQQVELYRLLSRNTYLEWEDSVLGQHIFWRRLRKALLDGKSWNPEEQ
Test description: summary grade (species binding potential); assay not given
Readout label: binding result

1E11.C2E3 antibody (IgG1) (antibody, V domains shown) VH: QVQLQESGPGLVKPSDTLSLTCAVSGYPIRFGYSWHWIRQPPGKGLEWMGYIHYSGYTDFNPSLKTRITISRDTSKNQFSLKLSSVTAVDTAVYYCARKDSGNYFPYWGQGTLVTVSS VL: EIVLTQSPDFQSVTPKEKVTITCRASQSISDHLHWYQQKPDQSPKLLIKYASHAISGVPSRFSGSGSGTDFTLTINSLEAEDAATYYCQQGYDFPLTFGGGTKVEIK	binds
1E11.C2E1 antibody (IgG1) (antibody, V domains shown) VH: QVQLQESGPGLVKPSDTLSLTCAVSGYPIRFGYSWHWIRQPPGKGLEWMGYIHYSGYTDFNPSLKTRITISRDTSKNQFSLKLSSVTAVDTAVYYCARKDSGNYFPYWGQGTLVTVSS VL: EIVLTQSPDFQSVTPKEKVTITCRASQSISDHLHWYQQKPDQSPKLLIKYASHAISGVPSRFSGSGSGTDFTLTINSLEAEDAATYYCQQGNDFPVTFGGGTKVEIK	binds
